The measurements presented in this section are drawn from paper PMC4332848.

assay: Serum vorinostat pharmacokinetics; assay type: in vivo, human; details: human, serum, oral, 200 mg, AUC0-8 h, Median, N 21

{"columns": ["MOLECULE", "UNITS SYMBOL", "AUC(0-t)"],
 "data": [
  ["O=C(CCCCCCC(=O)Nc1ccccc1)NO [vorinostat, suberoylanilide hydroxamic acid]", "ng·h/mL", 623]
]}

---

assay: Serum vorinostat pharmacokinetics; format: in vivo, human; conditions: human, serum, oral, 200 mg, Cmax, 65 years or older age group, average
READOUT LABEL: Cmax (ng/mL)

{"columns": ["COMPOUND", "UNITS SYMBOL", "ASSAY VALUE"],
 "data": [
  ["O=C(CCCCCCC(=O)Nc1ccccc1)NO [vorinostat, suberoylanilide hydroxamic acid]", "ng/mL", 203]
]}
